- experimental-system: PAR2 (HT-29 cells) (Homo sapiens)
- Construct: host or cells: HT-29
- Sequence (P55085 26-397): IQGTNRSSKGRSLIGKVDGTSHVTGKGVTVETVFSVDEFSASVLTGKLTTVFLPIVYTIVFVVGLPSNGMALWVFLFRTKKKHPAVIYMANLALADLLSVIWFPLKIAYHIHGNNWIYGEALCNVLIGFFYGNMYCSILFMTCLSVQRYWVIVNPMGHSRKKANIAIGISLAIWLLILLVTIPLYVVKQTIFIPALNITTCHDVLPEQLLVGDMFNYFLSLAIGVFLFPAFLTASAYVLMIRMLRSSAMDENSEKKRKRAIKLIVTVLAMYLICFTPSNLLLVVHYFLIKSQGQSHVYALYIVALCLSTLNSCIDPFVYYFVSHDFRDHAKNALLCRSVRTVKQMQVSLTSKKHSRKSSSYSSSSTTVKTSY
- method: Ca FLIPR TETRA assay, ANTAGONIST mode, activator 8 μM SLIGKV
- Type: cell-based
- condition-context: HT-29 cells; activator 8 μM SLIGKV; Method A: maximal concentration of antagonist 0.1, 1 or 2 μM
pIC50: −log10 of the molar value.
// label = y if pIC50 is not less than 8, otherwise n

Consider the following illustrative entries.
API: above_or_equal(metric=pIC50, cutoff=8) for item Cc1c[nH]nc1N1CCN(C(=O)c2cc3nc(C4CCC(C)(C)CC4)cc(C(C)(C)C)c3o2)C(C)(C)C1=O [Example I-313] n

API: above_or_equal(metric=pIC50, cutoff=8) for item CC(C)(C)c1cc(-c2ccc(Cl)c(F)c2)nc2cc(C(=O)N3CCN(C(=O)[C@@H]4CCCC[C@H]4C(=O)O)CC3(C)C)oc12 [Example I-506] n

API: above_or_equal(metric=pIC50, cutoff=8) for item CC(C)(C)c1cc(-c2ccc(Cl)c(F)c2)nc2cc(C(=O)N3CCC(CC(=O)NS(=O)(=O)C(F)(F)F)CC3(C)C)oc12 (centres unmarked) [Example I-433] y

API: above_or_equal(metric=pIC50, cutoff=8) for item CC1(C)CCC(c2cc(C(C)(C)C)c3oc(C(=O)N4CCN(c5cncc(C(=O)O)n5)CC4(C)C)cc3n2)CC1 [Example I-464] y

API: above_or_equal(metric=pIC50, cutoff=8) for item CC1(C)CCC(c2cc(C(C)(C)C)c3oc(C(=O)N4CCN(c5ncc(-c6nnn[nH]6)cn5)CC4(C)C)cc3n2)CC1 [Example I-346] y

API: above_or_equal(metric=pIC50, cutoff=8) for item CCC(CC)c1cc(-c2ccc(F)cc2)nc2cc(C(=O)N3CCN(c4cn[nH]c4)C(=O)C3(C)C)oc12 [Example I-301] y

API: above_or_equal(metric=pIC50, cutoff=8) for item CC(C)(C)c1cc(-c2ccc(Cl)cc2)nc2cc(C(=O)N3CCN(c4ccnc(C(=O)O)n4)CC3(C)C)oc12 [Example I-415] n

API: above_or_equal(metric=pIC50, cutoff=8) for item CC1(C)CCC(c2cc(C(C)(C)C)c3oc(C(=O)N4CCN(c5ccc(C(=O)O)cn5)CC4(C)C)cc3n2)CC1 [Example I-413] y

API: above_or_equal(metric=pIC50, cutoff=8) for item CC(C)(CC(=O)N1CCN(C(=O)c2cc3nc(-c4ccc(Cl)c(F)c4)cc(C(C)(C)C)c3o2)C(C)(C)C1)C(=O)O [Example I-417] y

API: above_or_equal(metric=pIC50, cutoff=8) for item Cc1nccnc1N1CCN(C(=O)c2cc3nc(-c4ccc(Cl)c(F)c4)cc(C(C)(C)C)c3o2)C(C)(C)C1=O [Example I-359] n

Next:
API: above_or_equal(metric=pIC50, cutoff=8) for item CC(C)(C)c1cc(C2CC3(CCC3)C2)nc2cc(C(=O)N3CCN(C(=O)[C@@H]4COCCN4)CC3(C)C)oc12 [Example I-447] n

API: above_or_equal(metric=pIC50, cutoff=8) for item CC(C)(C)c1cc(-c2ccc(Cl)c(F)c2)nc2cc(C(=O)N3CCc4cnc(CC(=O)O)nc4C3(C)C)oc12 [Example I-363] y

API: above_or_equal(metric=pIC50, cutoff=8) for item CC(C)(C)c1cc(-c2ccc(Cl)c(F)c2)nc2cc(C(=O)N3CCN(c4cnc(C(=O)O)cn4)CC3(C)C)oc12 [Example I-456] y

API: above_or_equal(metric=pIC50, cutoff=8) for item Cc1coc(N2CCN(C(=O)c3cc4nc(C5CCC(C)(C)CC5)cc(C(C)(C)C)c4o3)C(C)(C)C2)n1 [Example I-382] n

The origin of these recorded values is patent US20180057505A1.
